Molecular target: recombinant GTase A962 (Arabidopsis thaliana, UniProt O82382)
Construct: made in house; host or cells: E. coli
Sequence (O82382 1-474): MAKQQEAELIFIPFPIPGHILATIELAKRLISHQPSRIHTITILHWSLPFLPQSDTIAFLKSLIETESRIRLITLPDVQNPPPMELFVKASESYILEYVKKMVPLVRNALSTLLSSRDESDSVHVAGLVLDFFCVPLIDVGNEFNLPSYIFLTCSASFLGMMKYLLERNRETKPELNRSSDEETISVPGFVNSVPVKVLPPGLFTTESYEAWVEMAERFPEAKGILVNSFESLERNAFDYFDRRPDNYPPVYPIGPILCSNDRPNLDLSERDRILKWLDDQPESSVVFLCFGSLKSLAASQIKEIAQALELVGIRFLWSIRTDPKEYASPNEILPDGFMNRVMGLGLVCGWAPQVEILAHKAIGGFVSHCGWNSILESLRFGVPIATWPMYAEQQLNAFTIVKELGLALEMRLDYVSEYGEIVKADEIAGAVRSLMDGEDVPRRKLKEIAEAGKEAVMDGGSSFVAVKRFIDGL
Experiment: Specific activity of recombinant GTase producing O-glucosides against lignin precursors (HPLC)
Format: biochemical
Details: 30° C.; ND = not detected
OBSERVABLE: Specific activity of A962 (substrate converted to 4-O-glucoside) (nkat/mg)
Note: unit nkat/mg is implicit; provide only the numeric part.

{"CHEMICAL_SMILES": "COc1cc(/C=C/C=O)cc(OC)c1O", "ASSAYED_SYSTEM": "recombinant GTase A962 (Arabidopsis thaliana, UniProt O82382)", "UNIT_NAME": "nkat/mg", "RECORDED_RESULT": 0.50}
{"CHEMICAL_SMILES": "COc1cc(/C=C/CO)cc(OC)c1O", "ASSAYED_SYSTEM": "recombinant GTase A962 (Arabidopsis thaliana, UniProt O82382)", "UNIT_NAME": "nkat/mg", "RECORDED_RESULT": 0.45}
{"CHEMICAL_SMILES": "O=C(O)/C=C/c1ccc(O)cc1", "ASSAYED_SYSTEM": "recombinant GTase A962 (Arabidopsis thaliana, UniProt O82382)", "UNIT_NAME": "nkat/mg", "RECORDED_RESULT": 0.01}
{"CHEMICAL_SMILES": "COc1cc(/C=C/C(=O)O)cc(OC)c1O", "ASSAYED_SYSTEM": "recombinant GTase A962 (Arabidopsis thaliana, UniProt O82382)", "UNIT_NAME": "nkat/mg", "RECORDED_RESULT": 0.01}
{"CHEMICAL_SMILES": "COc1cc(/C=C/CO)ccc1O", "ASSAYED_SYSTEM": "recombinant GTase A962 (Arabidopsis thaliana, UniProt O82382)", "UNIT_NAME": "nkat/mg", "RECORDED_RESULT": 0.49}

# lookup: Specific activity of A962 (substrate converted to 4-O-glucoside) of "O=C/C=C/c1ccc(O)cc1"
0.02

# lookup: Specific activity of A962 (substrate converted to 4-O-glucoside) of "COc1cc(/C=C/C=O)ccc1O"
0.34
